Consider the following compounds; for each one, report its pEC50.
- Test system: HepG2 cells
- TEST_DETAILS: HepG2 cytotoxicity
- Type: cell-based
- DETAILS: Homo sapiens; toxicity against HepG2 cells
- Protocol: Given the literature precedents described above and the apparent narrow tolerance for R^3 substitutions observed in the primary screen compounds, a thorough and methodical assessment was undertaken of tolerated groups at the three points of diversity (R^1/R^2/R^3) for the core. At this stage of the project, all analogues were assessed using a battery of assays performed in-house at GlaxoSmithKline. […] In addition, compounds were assessed for toxicity against HepG2 cells (HEPG2 EC50). […]
pEC50 is a log-scale quantity: -log10 of the concentration expressed in molar.

Given the entry COC(=O)c1ccc(C2c3c(CC(C)C)n[nH]c3C(=O)N2c2ccc(OC)cc2)cc1 (stereo not drawn) , report its measured pEC50.
4.20

Again, but for COc1ccc(N2C(=O)c3[nH]nc(CC(C)C)c3C2c2ccc(F)cc2F)cc1 (stereo not drawn)
4.20

Again, but for CC(C)Cc1n[nH]c2c1C(c1ccc(F)cc1)N(c1ccc(N(C)C)cc1)C2=O (stereo not drawn)
4.30

Again, but for COc1ccc(N2C(=O)c3[nH]nc(CC(C)C)c3C2c2ccc(F)cc2)c(OC)c1 (stereo not drawn)
4.20

Again, but for COc1ccccc1N1C(=O)c2[nH]nc(CC(C)C)c2C1c1ccc(F)cc1 (stereo not drawn)
4.10

Again, but for COc1ccc(N2C(=O)c3[nH]nc(CCC(C)C)c3C2c2ccc(F)cc2)cc1 (stereo not drawn)
4.10

Again, but for COc1ccc(N2C(=O)c3[nH]nc(CC(C)C)c3C2c2ccc(Cl)cc2)cc1 (stereo not drawn)
4.30

Again, but for COc1ccc(N2C(=O)c3[nH]nc(CC(C)(C)C)c3C2c2ccc(F)cc2)cc1 (stereo not drawn)
4.40

Again, but for CC(C)Cc1n[nH]c2c1C(c1ccc(F)cc1)N(c1ccc(C(C)(C)C)cc1)C2=O (stereo not drawn)
4.30

Again, but for CC(C)Cc1n[nH]c2c1C(c1ccc(F)cc1)N(c1ccc(OC(F)(F)F)cc1)C2=O (stereo not drawn)
4.60

Again, but for CCc1ccc(N2C(=O)c3[nH]nc(CC(C)C)c3C2c2ccc(F)cc2)cc1 (stereo not drawn)
4.30

Again, but for C=C(C)CCCc1n[nH]c2c1C(c1ccc(F)cc1)N(c1ccc(OC)cc1)C2=O (stereo not drawn)
4.30

Again, but for COc1ccc(N2C(=O)c3[nH]nc(CC(C)C)c3C2c2cccc(F)c2)cc1 (stereo not drawn)
4.30

Again, but for COc1ccc(N2C(=O)c3[nH]nc(-c4ccc(CC(C)C)cc4)c3C2c2ccc(F)cc2)cc1 (stereo not drawn)
4.80

Again, but for COc1ccc(N2C(=O)c3[nH]nc(CC(C)C)c3C2c2ccccc2OC)cc1 (stereo not drawn)
5.20

Again, but for COC(=O)c1ccc(N2C(=O)c3[nH]nc(CC(C)C)c3C2c2ccc(F)cc2)cc1 (stereo not drawn)
4.40

Again, but for COc1ccc(N2C(=O)c3[nH]nc(CC(C)C)c3C2c2ccc(F)cc2)cc1 (racemic)
4.20

Again, but for COc1ccc(N2C(=O)c3[nH]nc(CC(C)C)c3C2c2ccc(C(F)(F)F)cc2)cc1 (stereo not drawn)
4.30

Again, but for COc1ccc(N2C(=O)c3[nH]nc(CCc4ccccc4)c3C2c2ccc(F)cc2)cc1 (stereo not drawn)
4.30

###

- Tested on: L. major (strain Friedlin) in J774 cells
- TEST_DETAILS: J774 luciferase infection assay (Assay Conditions E)
- Type: cell-based, Leishmania major
- DETAILS: values marked e
Marks after values point to notes of the source that are not given here.
Consider the following molecules; for each one, report its L. major amastigotes EC75 (J774 cells).

Given the entry CC(C)Cc1n[nH]c2c1C(c1ccccc1Br)N(c1ccc(N(C)C)cc1)C2=O (stereo not drawn) , report its measured L. major amastigotes EC75 (J774 cells).
5.2^c μM

Again, but for COc1cc(F)ccc1C1c2c(CC(C)C)n[nH]c2C(=O)N1c1ccc(N(C)C)cc1 (stereo not drawn)
1.3^e μM

Again, but for COc1ccc(N2C(=O)c3[nH]nc(CC(C)C)c3C2c2ccc(F)cc2C)cc1F (stereo not drawn)
2.7^e μM

Again, but for Cc1cc(F)ccc1C1c2c(CC(C)C)n[nH]c2C(=O)N1c1ccc(N(C)C)cc1 (stereo not drawn)
1.9^e μM

Again, but for COc1cc(F)ccc1C1c2c(CC(C)C)n[nH]c2C(=O)N1c1ccc(Br)cc1 (stereo not drawn)
2.8^e μM

Again, but for COc1ccc(N2C(=O)c3[nH]nc(CC(C)C)c3C2c2ccc(F)cc2)cc1F (stereo not drawn)
7.2^e μM

###

- TEST_DETAILS: GSK inMac assay, host cell toxicity readout (LD MAC)
- Assay type: cell-based, human
- DETAILS: human; footnote c; read-out: THP-1 Host Cell CC50
- Protocol: The intramacrophage Leishmania donovani activity assay (LD AMMAC) at GlaxoSmithKline was performed as described. Given the literature precedents described above and the apparent narrow tolerance for R^3 substitutions observed in the primary screen compounds, a thorough and methodical assessment was undertaken of tolerated groups at the three points of diversity (R^1/R^2/R^3) for the core. […] In addition, compounds were assessed for toxicity against HepG2 cells (HEPG2 EC50). […]
QUANTITY_NAME: CC50 (µM)
Give the value in µM but do not write µM after it.

Given the entry COc1ccc(N2C(=O)c3[nH]nc(CC(C)C)c3C2c2ccccc2OC)cc1F (stereo not drawn) , report its measured CC50.
0.3

Again, but for COc1ccc(N2C(=O)c3[nH]nc(-c4ccc(CC(C)C)cc4)c3C2c2ccc(F)cc2)cc1 (stereo not drawn)
7.9

Again, but for COc1ccc(N2C(=O)c3[nH]nc(CC(C)C)c3C2c2ncccc2Cl)cc1 (stereo not drawn)
20

Again, but for COc1ccc(N2C(=O)c3[nH]nc(CC(C)C)c3C2C2CCCC2)cc1 (stereo not drawn)
20

Again, but for COc1ccc(N2C(=O)c3[nH]nc(CC(C)C)c3C2c2ncccc2OC)cc1 (stereo not drawn)
20

###

- Test system: L. donovani intracellular amastigotes in B10R cells
- TEST_DETAILS: UCSD L. donovani infection assay (Assay Conditions D)
- Assay type: cell-based
- DETAILS: B10R cells
QUANTITY_NAME: L. donovani amastigotes EC75 (μM, B10R cells)

Given the entry CCn1cc(N2C(=O)c3[nH]nc(CC(C)C)c3C2c2ccc(F)cc2C)cn1 (stereo not shown) [BUCMD00663] , report its measured L. donovani amastigotes EC75 (μM, B10R cells).
4.0 µM

Again, but for COc1ncc(N2C(=O)c3[nH]nc(CC(C)C)c3C2c2ccc(F)cc2)cc1C (stereo not shown) [CMLD011555]
1.7 µM

Again, but for COc1cc(N2C(=O)c3[nH]nc(CC(C)C)c3C2c2ccc(F)cc2F)ccn1 (stereo not shown) [BUCMD00188]
>10 µM

Again, but for COc1ccc(OC)c(C2c3c(CC(C)C)n[nH]c3C(=O)N2c2cc(C)ccn2)c1 (stereo not shown) [BUCMD00197]
>10 µM

Again, but for COc1cc(N2C(=O)c3[nH]nc(CC(C)C)c3C2c2c(C)nn(C)c2Cl)ccc1Br (stereo not shown) [BUCMD00179]
>10 µM

Again, but for CC(C)Cc1n[nH]c2c1C(c1ccccc1F)N(c1cncc(F)c1)C2=O (stereo not shown) [BUCMD00700]
1.3 µM

Again, but for Cc1ccc(N2C(=O)c3[nH]nc(CC(C)C)c3C2c2ccc(F)cc2)nc1 (stereo not shown) [BUCMD00174]
>10 µM

Again, but for COc1ccc(OC)c(N2C(=O)c3[nH]nc(CC(C)C)c3C2c2ccc(OC)nc2)c1 (stereo not shown) [BUCMD00177]
>10 µM

Again, but for CC(C)Cc1n[nH]c2c1C(c1ccccc1C(F)(F)F)N(c1ccc(N3CCN(C)CC3)nc1)C2=O (stereo not shown) [BUCMD00723]
10.0 µM

Again, but for CC(C)Cc1n[nH]c2c1C(C1CCCCC1)N(c1ccc3ncnn3c1)C2=O (stereo not shown) [BUCMD00157]
>10 µM

Again, but for CC(C)Cc1n[nH]c2c1C(c1ccsc1)N(c1ccc3c(c1)OCO3)C2=O (stereo not shown) [CMLD011136]
3.6 µM

Again, but for Cc1ccsc1C1c2c(CC(C)C)n[nH]c2C(=O)N1c1cncc(F)c1 (stereo not shown) [BUCMD00702]
7.3 µM

Again, but for CC(C)Cc1n[nH]c2c1C(c1ccc(F)cc1)N(c1cncc(Br)c1)C2=O (stereo not shown) [BUCMD00172]
>10 µM

Again, but for Cc1ccccc1C1c2c(CC(C)C)n[nH]c2C(=O)N1c1ccc(C(=O)N2CCCC2)cc1 (stereo not shown) [BUCMD00713]
>10 µM

Again, but for COc1cc(N2C(=O)c3[nH]nc(CC(C)C)c3C2c2c(C)nn(C)c2Cl)ccc1F (stereo not shown) [BUCMD00180]
>10 µM

Again, but for CC(C)Cc1n[nH]c2c1C(c1ccc(F)cc1F)N(c1cnn(C(C)C)c1)C2=O (stereo not shown) [BUCMD00678]
>10 µM

Again, but for COc1cccc(N2C(=O)c3[nH]nc(CC(C)C)c3C2c2cncc(Br)c2)c1 (stereo not shown) [BUCMD00185]
>10 µM

Again, but for COc1ccc(N2C(=O)c3[nH]nc(CC(C)C)c3[C@H]2c2ccc(F)cc2)cc1 [CMLD013629]
>10 µM

Again, but for CC(C)Cc1n[nH]c2c1C(c1ccccc1C(F)(F)F)N(c1ccn(C)n1)C2=O (stereo not shown) [BUCMD00661]
>10 µM

Again, but for CCn1cc(N2C(=O)c3[nH]nc(CC(C)C)c3C2c2sccc2C)cn1 (stereo not shown) [BUCMD00672]
6.9 µM

Again, but for CC(C)Cc1n[nH]c2c1C(c1ccc(F)cc1)N(c1cc(C(C)C)nn1C)C2=O (stereo not shown) [BUCMD00171]
>10 µM

Again, but for CC(C)Cc1n[nH]c2c1C(c1ccc(F)cc1F)N(c1ccc(N3CCN(C)CC3)nc1)C2=O (stereo not shown) [BUCMD00722]
>10 µM
